# EXPERIMENT: Pharmacokinetic evaluation in Nu/Nu mice (plasma, LC-MS/MS)
# Format: in vivo
# COND: mouse, in vivo, po, i.g., 100 mg/kg, read-out: Clearance CL/F
ENDPOINT: CL/F (L/h/kg)
Please respond with the number in L/h/kg and leave the unit unwritten.

// query Suppose we examine the molecule Cn1ncc(-c2ccc3c(=O)[nH]nc(CN)c3c2)c1-c1c(F)cc2c(c1C#N)OCCO2 (atropisomer, axis not shown) [Comparative example 1, reference compound] ; what CL/F value has been reported?
// result 57.6

----------
Let's look at some molecules and their measured Vd/F.
# EXPERIMENT: Pharmacokinetic evaluation in Nu/Nu mice (plasma, LC-MS/MS)
# Assay type: in vivo
# COND: mouse, plasma, po, i.g., 100 mg/kg, read-out: Apparent volume of distribution V/F
Please respond with the number in L/kg and leave the unit unwritten.

Reference set, count: 2
molecule="Cn1ncc(-c2ccc3c(=O)[nH]nc(CN)c3c2)c1-c1c(F)cc2c(c1C#N)O[C@H]1CC[C@H]1O2 (atropisomer, axis not shown; (M)) [Compound 1-p1]" recorded_value=35.4
molecule="[2H]C([2H])([2H])n1ncc(-c2ccc3c(=O)[nH]nc(CN)c3c2)c1-c1c(F)cc2c(c1C#N)N1CCC[C@H]1CO2 (single isomer, unassigned) [Compound 8-p1]" recorded_value=23.9

Now for the molecule whose Vd/F we want.
// query Suppose we examine the molecule [2H]C([2H])([2H])n1ncc(-c2ccc3c(=O)[nH]nc(CN)c3c2)c1-c1c(F)cc2c(c1C#N)O[C@H]1CC[C@H]1O2 (single isomer, unassigned) [Compound 2-p1] ; what Vd/F value has been reported?
// result 23.3

----------
# EXPERIMENT: Pharmacokinetic evaluation in Nu/Nu mice (plasma, LC-MS/MS)
# Format: in vivo
# COND: mouse, in vivo, po, i.g., 100 mg/kg, read-out: Half life T1/2 (converted)
# Experimental: Using Nu/Nu mice as the test animals, the plasma concentrations of the example compounds at different time points were determined by LC-MS/MS following oral gavage (i.g.) administration. The pharmacokinetic behaviours of the compounds of the present disclosure in Nu/Nu mice were investigated, and their pharmacokinetic profiles were evaluated. Compound 1-p1, compound 2-p1, compound 8-p1 and comparative example 1. […]
ENDPOINT: half-life (h)
Please respond with the number in h and leave the unit unwritten.

// query Suppose we examine the compound Cn1ncc(-c2ccc3c(=O)[nH]nc(CN)c3c2)c1-c1c(F)cc2c(c1C#N)OCCO2 (atropisomer, axis not shown) [Comparative example 1, reference compound] ; what half-life value has been reported?
// result 1.6

----------
# TEST SYSTEM: Recombinant human PRMT5: MEP50 protein (Homo sapiens, UniProt O14744)
# Construct: purchased active motif 31521
# Sequence (O14744 whole entry): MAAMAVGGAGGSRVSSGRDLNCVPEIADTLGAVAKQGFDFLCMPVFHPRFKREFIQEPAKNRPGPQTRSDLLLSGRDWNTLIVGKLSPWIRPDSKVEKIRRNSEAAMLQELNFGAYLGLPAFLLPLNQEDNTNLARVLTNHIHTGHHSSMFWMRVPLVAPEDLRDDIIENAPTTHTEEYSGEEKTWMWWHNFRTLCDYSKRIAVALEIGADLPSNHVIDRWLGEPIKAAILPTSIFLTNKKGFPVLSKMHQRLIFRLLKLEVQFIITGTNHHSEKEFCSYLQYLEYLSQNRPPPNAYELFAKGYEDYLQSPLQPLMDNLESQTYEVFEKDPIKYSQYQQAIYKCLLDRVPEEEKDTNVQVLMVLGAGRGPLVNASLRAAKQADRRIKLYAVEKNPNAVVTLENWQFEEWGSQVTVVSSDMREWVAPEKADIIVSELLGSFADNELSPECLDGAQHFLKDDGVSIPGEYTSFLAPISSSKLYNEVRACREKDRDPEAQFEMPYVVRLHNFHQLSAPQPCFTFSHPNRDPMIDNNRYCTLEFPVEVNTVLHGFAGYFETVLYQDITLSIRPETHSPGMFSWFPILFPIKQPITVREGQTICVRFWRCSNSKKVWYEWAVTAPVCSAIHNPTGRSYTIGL
# Sequence (Q9BQA1 whole entry partner): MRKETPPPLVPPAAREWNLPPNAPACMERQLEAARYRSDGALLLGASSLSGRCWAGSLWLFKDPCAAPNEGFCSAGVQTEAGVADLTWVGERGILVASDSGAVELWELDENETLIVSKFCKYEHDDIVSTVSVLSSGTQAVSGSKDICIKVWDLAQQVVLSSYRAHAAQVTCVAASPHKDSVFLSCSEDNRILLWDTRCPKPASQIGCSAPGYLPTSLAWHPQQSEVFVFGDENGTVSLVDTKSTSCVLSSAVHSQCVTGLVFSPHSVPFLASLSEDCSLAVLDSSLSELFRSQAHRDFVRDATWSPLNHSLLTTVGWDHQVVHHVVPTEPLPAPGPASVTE
# EXPERIMENT: Inhibitory activity against human PRMT5 enzymatic activity (HTRF quantification of SAH, +MTA)
# Format: biochemical
# COND: +1 µM MTA; histone H4 peptide substrate (1-21), SAM; 37°C 120 min
Let's look at some molecules and their measured IC50.
Please respond with the number in nM and leave the unit unwritten.

molecule="[2H]C([2H])([2H])n1ncc(-c2ccc3c(=O)[nH]nc(CN)c3c2)c1-c1c(F)c(Cl)c2c(c1C#N)O[C@H]1CC[C@H]1O2 (atropisomer, axis not shown; (M))" test_system="Recombinant human PRMT5: MEP50 protein (Homo sapiens, UniProt O14744)" endpoint=IC50 unit_text=nM recorded_value=5.4
molecule="Cn1ncc(-c2ccc3c(=O)[nH]nc(CN)c3c2)c1-c1c(F)cc2c(c1C#N)O[C@H]1CC[C@H]1O2 (atropisomer, axis not shown; (M)) [Compound 1-p1]" test_system="Recombinant human PRMT5: MEP50 protein (Homo sapiens, UniProt O14744)" endpoint=IC50 unit_text=nM recorded_value=4.91
molecule="[2H]C([2H])([2H])n1ncc(-c2ccc3c(=O)[nH]nc(CN)c3c2)c1-c1c(F)cc2c(c1C#N)O[C@@H]1CC[C@@H]1O2 (single isomer, unassigned) [Compound 2-p2]" test_system="Recombinant human PRMT5: MEP50 protein (Homo sapiens, UniProt O14744)" endpoint=IC50 unit_text=nM recorded_value=7.01
molecule="[2H]C([2H])([2H])n1ncc(-c2ccc3c(=O)[nH]nc(CN)c3c2)c1-c1c(F)cc2c(c1C#N)O[C@H]1CC[C@H]1O2 (single isomer, unassigned) [Compound 2-p1]" test_system="Recombinant human PRMT5: MEP50 protein (Homo sapiens, UniProt O14744)" endpoint=IC50 unit_text=nM recorded_value=5.23

Now for the molecule whose IC50 we want.
// query Suppose we examine the molecule [2H]C([2H])([2H])n1ncc(-c2ccc3c(=O)[nH]nc(CN)c3c2)c1-c1c(F)cc2c(c1C#N)N1CCC[C@H]1CO2 (single isomer, unassigned) [Compound 8-p1] ; what IC50 value has been reported?
// result 5.19

----------
# EXPERIMENT: Pharmacokinetic evaluation in Nu/Nu mice (plasma, LC-MS/MS)
# Format: in vivo
# COND: mouse, in vivo, po, i.g., 100 mg/kg, read-out: Apparent volume of distribution V/F
ENDPOINT: Vd/F (L/kg)
Please respond with the number in L/kg and leave the unit unwritten.

// query Suppose we examine the compound Cn1ncc(-c2ccc3c(=O)[nH]nc(CN)c3c2)c1-c1c(F)cc2c(c1C#N)OCCO2 (atropisomer, axis not shown) [Comparative example 1, reference compound] ; what Vd/F value has been reported?
// result 132

----------
# EXPERIMENT: Pharmacokinetic evaluation in Nu/Nu mice (plasma, LC-MS/MS)
# Format: in vivo
# COND: mouse, plasma, po, i.g., 100 mg/kg, read-out: Area under the curve AUC0-t
ENDPOINT: AUC(0-t)
Respond with a number, then the unit of measure.

Reference set, count: 2
compound="Cn1ncc(-c2ccc3c(=O)[nH]nc(CN)c3c2)c1-c1c(F)cc2c(c1C#N)O[C@H]1CC[C@H]1O2 (atropisomer, axis not shown; (M)) [Compound 1-p1]" endpoint=AUC(0-t) recorded_value="8650 ng·h/mL"
compound="[2H]C([2H])([2H])n1ncc(-c2ccc3c(=O)[nH]nc(CN)c3c2)c1-c1c(F)cc2c(c1C#N)N1CCC[C@H]1CO2 (single isomer, unassigned) [Compound 8-p1]" endpoint=AUC(0-t) recorded_value="7640 ng·h/mL"

Now for the compound whose AUC(0-t) we want.
// query Suppose we examine the compound [2H]C([2H])([2H])n1ncc(-c2ccc3c(=O)[nH]nc(CN)c3c2)c1-c1c(F)cc2c(c1C#N)O[C@H]1CC[C@H]1O2 (single isomer, unassigned) [Compound 2-p1] ; what AUC(0-t) value has been reported?
// result 7140 ng·h/mL

----------
# EXPERIMENT: Pharmacokinetic evaluation in Nu/Nu mice (plasma, LC-MS/MS)
# Type: in vivo
# COND: mouse, plasma, po, i.g., 100 mg/kg, read-out: Clearance CL/F
Let's look at some compounds and their measured CL/F.
Please respond with the number in mL/min/kg and leave the unit unwritten.

Reference set, count: 2
compound="[2H]C([2H])([2H])n1ncc(-c2ccc3c(=O)[nH]nc(CN)c3c2)c1-c1c(F)cc2c(c1C#N)O[C@H]1CC[C@H]1O2 (single isomer, unassigned) [Compound 2-p1]" unit_text=mL/min/kg recorded_value=233
compound="[2H]C([2H])([2H])n1ncc(-c2ccc3c(=O)[nH]nc(CN)c3c2)c1-c1c(F)cc2c(c1C#N)N1CCC[C@H]1CO2 (single isomer, unassigned) [Compound 8-p1]" unit_text=mL/min/kg recorded_value=218

Now for the compound whose CL/F we want.
// query Suppose we examine the compound Cn1ncc(-c2ccc3c(=O)[nH]nc(CN)c3c2)c1-c1c(F)cc2c(c1C#N)O[C@H]1CC[C@H]1O2 (atropisomer, axis not shown; (M)) [Compound 1-p1] ; what CL/F value has been reported?
// result 189

----------
# EXPERIMENT: Pharmacokinetic evaluation in Nu/Nu mice (plasma, LC-MS/MS)
# Assay type: in vivo
# COND: mouse, plasma, po, i.g., 100 mg/kg, read-out: Plasma concentration Cmax
Let's look at some compounds and their measured Cmax.
Please respond with the number in ng/mL and leave the unit unwritten.

Reference set, count: 2
compound="Cn1ncc(-c2ccc3c(=O)[nH]nc(CN)c3c2)c1-c1c(F)cc2c(c1C#N)O[C@H]1CC[C@H]1O2 (atropisomer, axis not shown; (M)) [Compound 1-p1]" recorded_value=3250
compound="[2H]C([2H])([2H])n1ncc(-c2ccc3c(=O)[nH]nc(CN)c3c2)c1-c1c(F)cc2c(c1C#N)O[C@H]1CC[C@H]1O2 (single isomer, unassigned) [Compound 2-p1]" recorded_value=2940

Now for the compound whose Cmax we want.
// query Suppose we examine the compound [2H]C([2H])([2H])n1ncc(-c2ccc3c(=O)[nH]nc(CN)c3c2)c1-c1c(F)cc2c(c1C#N)N1CCC[C@H]1CO2 (single isomer, unassigned) [Compound 8-p1] ; what Cmax value has been reported?
// result 2530
